For each of the compounds below, state its growth at 10 µM.
- System: A498
- assay-explanation: Growth inhibition of human A498 cells assessed as cell growth at 10 uM after 48 hrs by sulforhodamine B assay
- Assay type: functional
- experimental-setup: A498, 48 h, read-out: Activity
Param answer (str): number followed by unit.

[in] // lookup growth at 10 µM for COc1cc(-c2nn(-c3cccc(NC(=O)Nc4ccccc4)c3)cc2-c2ccncc2)ccc1Cl
[out] 79.7%

[in] Param item = COc1cc(-c2nn(-c3cccc(NC(=O)c4ccccc4)c3)cc2-c2ccncc2)ccc1Cl ; retrieve measured growth at 10 µM.
[out] -23.2%

[in] Reported growth at 10 µM for O=C(Nc1cccc(-n2cc(-c3ccncc3)c(-c3ccc(Cl)c(O)c3)n2)c1)Nc1ccc(Cl)c(Cl)c1 : what is it?
[out] 31.1%

[in] Query: growth at 10 µM; subject: COc1cc(-c2nn(-c3cccc(NC(=O)c4cccc(C(F)(F)F)c4)c3)cc2-c2ccncc2)ccc1Cl
[out] -19%

[in] Using the record for Cc1cc(C(=O)Nc2cccc(-n3cc(-c4ccncc4)c(-c4ccc(Cl)c(O)c4)n3)c2)ccc1Br , report its growth at 10 µM.
[out] 102%

[in] Please look up its growth at 10 µM: COc1cc(-c2nn(-c3cccc(NC(=O)c4ccc(N5CCOCC5)c(C(F)(F)F)c4)c3)cc2-c2ccncc2)ccc1Cl
[out] -29.7%

[in] May I ask what growth at 10 µM has been recorded for O=C(Nc1cccc(-n2cc(-c3ccncc3)c(-c3ccc(Cl)c(O)c3)n2)c1)c1ccc(Cl)c(C(F)(F)F)c1 ?
[out] 105%

[in] May I ask what growth at 10 µM has been recorded for COc1cc(-c2nn(-c3cccc(NC(=O)c4ccc(Cl)c(C(F)(F)F)c4)c3)cc2-c2ccncc2)ccc1Cl ?
[out] 11.8%

---

Kindly supply the reported TGI values for the records listed here.
- Test system: NCI-H23
- assay-explanation: Growth inhibition of human NCI-H23 cells after 48 hrs by sulforhodamine B assay
- Format: functional
- experimental-setup: NCI-H23, 48 h
Give the quantity in µM, number only.

[in] Which TGI is listed for O=C(Nc1cccc(-n2cc(-c3ccncc3)c(-c3ccc(Cl)c(O)c3)n2)c1)Nc1ccc(Cl)c(C(F)(F)F)c1 ?
[out] 3.33

[in] Which TGI value belongs to COc1cc(-c2nn(-c3cccc(NC(=O)c4ccc(N5CCOCC5)c(C(F)(F)F)c4)c3)cc2-c2ccncc2)ccc1Cl ?
[out] 20.7

[in] Fill in: TGI of COc1cc(-c2nn(-c3cccc(NC(=O)c4cccc(C(F)(F)F)c4)c3)cc2-c2ccncc2)ccc1Cl is ___
[out] 32.5

[in] Consider the molecule shown here: O=C(Nc1cccc(-n2cc(-c3ccncc3)c(-c3ccc(Cl)c(O)c3)n2)c1)Nc1ccc(Cl)c(Cl)c1 What is its recorded TGI?
[out] 29.1

---

For each of the molecules below, state its growth at 10 µM.
- Tested on: Malme-3M
- assay-explanation: Growth inhibition of human MALME-3M cells assessed as cell growth at 10 uM after 48 hrs by sulforhodamine B assay
- Assay type: functional
- experimental-setup: read-out: Activity
Respond numerically; units are % and should not be typed.

[in] Query: growth at 10 µM; subject: COc1cc(-c2nn(-c3cccc(NC(=O)Nc4cccc(C(F)(F)F)c4)c3)cc2-c2ccncc2)ccc1Cl
[out] -32.1

[in] I'd like to know its growth at 10 µM. The molecule in question is O=C(Nc1cccc(-n2cc(-c3ccncc3)c(-c3ccc(Cl)c(O)c3)n2)c1)Nc1ccc(Cl)c(C(F)(F)F)c1
[out] -16.6

[in] # input molecule: COc1cc(-c2nn(-c3cccc(NC(=O)Nc4ccc(Cl)c(Cl)c4)c3)cc2-c2ccncc2)ccc1Cl ; wanted: its growth at 10 µM
[out] -19.9

[in] Given COc1cc(-c2nn(-c3cccc(NC(=O)Nc4cc(C(F)(F)F)cc(C(F)(F)F)c4)c3)cc2-c2ccncc2)ccc1Cl , state its recorded growth at 10 µM.
[out] -10.7

Values were extracted from ChEMBL document CHEMBL2440076.
